tgt: recombinant human EP-2 receptor (Homo sapiens, UniProt P43116)
Construct: cell line stably transfected with full length cDNA encoding human Prostaglandin E2 was established
Sequence (P43116 whole entry): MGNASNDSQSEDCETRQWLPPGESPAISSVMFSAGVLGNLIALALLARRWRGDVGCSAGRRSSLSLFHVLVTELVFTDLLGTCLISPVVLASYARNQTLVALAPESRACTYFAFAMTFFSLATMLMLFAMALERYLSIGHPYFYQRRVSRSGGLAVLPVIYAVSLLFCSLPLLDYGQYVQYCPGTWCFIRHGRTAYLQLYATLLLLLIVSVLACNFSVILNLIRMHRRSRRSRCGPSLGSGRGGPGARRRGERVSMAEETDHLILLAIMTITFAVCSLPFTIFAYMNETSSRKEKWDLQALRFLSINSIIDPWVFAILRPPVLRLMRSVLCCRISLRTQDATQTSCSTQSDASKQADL
measurement_description: in vitro antagonist potency against recombinant human EP-2 receptor in CHO cells (cAMP, Protocol 1)
study_conditions: functional Ki by Cheng-Prusoff from IC50; CHO cells stimulated with PGE2 (5 nM); cAMP readout; read-out: EP2 Ki
Source text: 1.0 Measurement of in vitro Antagonist Potency (IC50) of Compounds Against Recombinant Human Prostaglandin E2 Receptor in CHO Cells The prostaglandin E2 (EP-2) receptor is Gs coupled and agonism of the receptor by PGE2 results in activation of intracellular adenylate cyclase enzymes that synthesise the second messenger signalling molecule, adenosine 3′,5′-cyclic monophosphate (cAMP). […]
Task for the reader: assign each of the following compounds its reported log10(Ki).
The base-10 logarithm of Ki, taken with Ki in nM, is what appears here.

**Q:** log10(Ki) lookup needed for O=C(c1ccccc1)N1CC(COc2cnc(-c3ccc(Cl)cc3)cn2)(C(=O)O)C1 , thanks.
**A:** 0.70

**Q:** Another compound to check: Cc1ccc2cc(OCC3(C(=O)O)CN(C(=O)c4cccc(Cl)c4)C3)ccc2n1
**A:** 2.10

**Q:** Another compound to check: O=C(c1ccc(F)cc1)N1CC(COc2ccc(-c3ccccn3)nc2)(C(=O)O)C1
**A:** 2.16

**Q:** Another compound to check: O=C(c1ccc(F)cc1)N1CC(COc2ccc(-c3ccc(Cl)cc3)cc2)(C(=O)O)C1
**A:** 0.49

**Q:** Another compound to check: COc1ccc2cc(OCC3(C(=O)NS(C)(=O)=O)CN(C(=O)c4ccc(F)cc4)C3)ccc2c1
**A:** 2.89

**Q:** Another compound to check: CCCOc1ccc(OCC2(C(=O)O)CN(C(=O)c3ccc(Cl)cc3)C2)cc1
**A:** 1.50

**Q:** Another compound to check: O=C(c1ccccc1)N1CC(COc2ccc3ccccc3c2)(C(=O)O)C1
**A:** 2.24

**Q:** Another compound to check: N#Cc1ccc(-c2ccc(OCC3(C(=O)O)CN(C(=O)c4ccc(Cl)cc4)C3)cc2)cc1
**A:** -0.05

**Q:** Another compound to check: COc1ccc2cc(OCC3(C(=O)O)CN(C(=O)Oc4ccc(F)cc4)C3)ccc2c1
**A:** 2.43

**Q:** Another compound to check: O=C(c1ccc(F)cc1)N1CC(COc2ccc(-c3ccccc3Cl)cc2)(C(=O)O)C1
**A:** 1.35

**Q:** Another compound to check: O=C(c1ccc(Cl)cc1)N1CC(COc2ccc(-c3ccccc3)cc2)(C(=O)O)C1
**A:** 1.29

**Q:** Another compound to check: COc1ccc(-c2cnc(OCC3(C(=O)O)CN(C(=O)c4ccccc4)C3)nc2)cc1
**A:** 1.57

**Q:** Another compound to check: CCCOc1ccc(OCC2(C(=O)O)CN(C(=O)Nc3cc(C)cc(C)c3)C2)cc1
**A:** 2.77

**Q:** Another compound to check: O=C(c1ccc(F)cc1)N1CC(COc2cccc(-c3ccccc3)c2)(C(=O)O)C1
**A:** 2.88

**Q:** Another compound to check: COc1ccc2cc(OCC3(C(=O)O)CN(C(=O)c4ccccc4)C3)ccc2c1
**A:** 1.39
